Measured responders at 10 mg/kg, listed per entry.
Tested on: brain ischemia
assay remarks: Anoxic Nitrogen Test in Rats
Assay type: in vivo, male Sprague-Dawley rats
condition info: Rattus norvegicus, sc; 10 mg/kg, subcutaneously, 2 hr survival; read-out: Nitrogen Anoxia % Survival
Number only, in %; omit the unit.

I am curious: what responders at 10 mg/kg value has been reported for C1=C(c2ccc3c(c2)OCCO3)CCC(N2CCN(Cc3ccccc3)CC2)C1 (stereo not shown) [Example 56] ?
100

***
Report responders at 10 mg/kg for COc1cccc(CC2CCN(C3CC=C(c4ccc5c(c4)OCO5)CC3)CC2)c1 (stereo not shown) [Example 52] please.
38

# responders at 10 mg/kg lookup, item COc1cccc(CN2CCN(C3CC=C(c4ccc5c(c4)OCO5)CC3)CC2)c1 (stereo not shown) [Example 59]
75

Query: responders at 10 mg/kg; subject: FC(F)(F)c1ccc(C2=CCC(N3CCN(Cc4ccccc4)CC3)CC2)cc1 (stereo not shown) [Example 40]
100
